# SYSTEM UNDER TEST: HLA-B*57:01
# PROTOCOL DESCRIPTION: IEDB peptide-MHC binding, purified MHC/competitive/radioactivity; bounds were set here for any values at or beyond the usual limits of such assays
# CONDITION DESCRIPTION: source organism: Bordetella pertussis
pIC50: −log10 of the molar value.
QUANTITY MEASURED: pIC50

Here is how some sequences turned out for pIC50.
1. EKRLDIDDA	≤ 4.15
2. NNETMSGRQ	≤ 4.15
3. VTSVAMKPY	5.04

Field: next sequence
May I ask what pIC50 has been recorded for `TVVQRNKHW` ?
≤ 4.15
